meta.source: patent US20240299387A1

# assayed_system: EGFR L858R T790M in NCI-H1975 cell line (Homo sapiens, UniProt P00533, L858R/T790M)
# Construct: host or cells: NCI-H1975
# Sequence (P00533 25-1210 T790M/L858R): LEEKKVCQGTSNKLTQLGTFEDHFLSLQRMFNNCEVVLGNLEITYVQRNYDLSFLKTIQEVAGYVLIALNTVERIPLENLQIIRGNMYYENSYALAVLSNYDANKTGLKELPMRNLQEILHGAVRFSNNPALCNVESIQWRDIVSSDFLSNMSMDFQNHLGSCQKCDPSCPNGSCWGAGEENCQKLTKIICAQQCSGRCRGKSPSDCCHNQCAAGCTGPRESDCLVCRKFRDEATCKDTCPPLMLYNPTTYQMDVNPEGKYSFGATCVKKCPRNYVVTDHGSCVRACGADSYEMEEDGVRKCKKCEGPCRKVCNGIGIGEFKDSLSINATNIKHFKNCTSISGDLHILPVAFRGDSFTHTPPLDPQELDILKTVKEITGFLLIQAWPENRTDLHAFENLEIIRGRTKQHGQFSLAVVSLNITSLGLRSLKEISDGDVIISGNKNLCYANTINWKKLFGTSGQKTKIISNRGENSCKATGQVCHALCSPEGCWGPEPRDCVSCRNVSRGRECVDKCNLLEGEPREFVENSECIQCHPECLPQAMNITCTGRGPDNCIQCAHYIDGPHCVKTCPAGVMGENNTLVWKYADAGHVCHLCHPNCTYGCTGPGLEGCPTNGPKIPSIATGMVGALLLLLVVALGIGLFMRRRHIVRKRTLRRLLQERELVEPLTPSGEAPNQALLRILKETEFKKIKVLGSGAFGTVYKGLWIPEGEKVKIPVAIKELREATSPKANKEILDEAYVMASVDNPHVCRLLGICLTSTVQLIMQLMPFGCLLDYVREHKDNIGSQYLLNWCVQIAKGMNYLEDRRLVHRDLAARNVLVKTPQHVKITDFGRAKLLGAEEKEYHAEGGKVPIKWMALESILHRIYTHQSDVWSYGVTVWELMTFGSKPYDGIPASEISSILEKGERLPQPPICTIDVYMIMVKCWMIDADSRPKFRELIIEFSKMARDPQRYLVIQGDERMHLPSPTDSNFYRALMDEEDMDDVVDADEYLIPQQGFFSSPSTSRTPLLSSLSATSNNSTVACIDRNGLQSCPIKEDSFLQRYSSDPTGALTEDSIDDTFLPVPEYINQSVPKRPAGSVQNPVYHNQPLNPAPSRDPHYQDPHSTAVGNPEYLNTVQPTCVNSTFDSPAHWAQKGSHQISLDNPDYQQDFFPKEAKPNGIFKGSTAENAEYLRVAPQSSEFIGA
# method_summary: NCI-H1975 pEGFR AlphaLISA assay
# Type: cell-based
# measurement_context: NCI-H1975 cells (EGFR L858R T790M), p-EGFR (Tyr1068), 4-5 hours incubation; read-out: Ext pEGFR H1975 GMean IC50 (nM) Protocol: @Pharmaron AlphaLISA (Num)

# molecule, assayed_system, IC50
data = [
    ("CC(C)c1cnc(C(=O)N[C@H]2CN(C)C[C@H]2F)c2cnc(Nc3ccnc(N4CC[C@@H](O)[C@@](C)(F)C4)n3)cc12 (single isomer, unassigned) [Example 88]", "EGFR L858R T790M in NCI-H1975 cell line (Homo sapiens, UniProt P00533, L858R/T790M)", "10 to 20 nM"),
    ("CC(C)c1cnc(C(=O)NC2CC(F)(F)C2)c2cnc(Nc3ccnc(N4CC[C@@H](O)[C@@](C)(F)C4)n3)cc12 [Example 75]", "EGFR L858R T790M in NCI-H1975 cell line (Homo sapiens, UniProt P00533, L858R/T790M)", "30 to 50 nM"),
    ("CC(C)c1cnc(C(=O)NCC(C)(C)O)c2cnc(Nc3ccnc(N4CC[C@@H](O)[C@@](C)(F)C4)n3)cc12 [Example 70]", "EGFR L858R T790M in NCI-H1975 cell line (Homo sapiens, UniProt P00533, L858R/T790M)", "> 50 nM"),
    ("CC(C)c1ccc(OCCn2cncn2)c2cnc(Nc3ccnc(N4CCC(C)(O)CC4)n3)cc12 [Example 15]", "EGFR L858R T790M in NCI-H1975 cell line (Homo sapiens, UniProt P00533, L858R/T790M)", "30 to 50 nM"),
    ("CC(=O)N1CC(COc2ccc(C(C)C)c3cc(Nc4ccnc(N5CC[C@](C)(O)[C@H](F)C5)n4)ncc23)C1 [Example 26]", "EGFR L858R T790M in NCI-H1975 cell line (Homo sapiens, UniProt P00533, L858R/T790M)", "> 50 nM"),
    ("CC(C)c1ccc(OCCn2cnnc2)c2cnc(Nc3ccnc(N4CC[C@](C)(O)[C@H](F)C4)n3)cc12 [Example 27]", "EGFR L858R T790M in NCI-H1975 cell line (Homo sapiens, UniProt P00533, L858R/T790M)", "> 50 nM"),
    ("CC(C)c1ccc(OC[C@H]2COC(=O)N2C)c2cnc(Nc3ccnc(N4CC[C@@](C)(O)[C@@H](F)C4)n3)cc12 (single isomer, unassigned) [Example 22]", "EGFR L858R T790M in NCI-H1975 cell line (Homo sapiens, UniProt P00533, L858R/T790M)", "> 50 nM"),
    ("CC(C)c1cnc(C(=O)N[C@H]2C[C@H](O)C2)c2cnc(Nc3ccnc(N4CC[C@@H](O)[C@@](C)(F)C4)n3)cc12 [Example 79]", "EGFR L858R T790M in NCI-H1975 cell line (Homo sapiens, UniProt P00533, L858R/T790M)", "30 to 50 nM"),
    ("CC(C)c1cnc(C(=O)NC2CC2)c2cnc(Nc3ccnc(N4CC[C@@H](O)[C@@](C)(F)C4)n3)cc12 [Example 68]", "EGFR L858R T790M in NCI-H1975 cell line (Homo sapiens, UniProt P00533, L858R/T790M)", "> 50 nM"),
    ("CC(C)c1ccc(OC[C@@H]2CC(=O)N(C)C2)c2cnc(Nc3ccnc(N4CC[C@@H](O)[C@@](C)(F)C4)n3)cc12 (single isomer, unassigned) [Example 20]", "EGFR L858R T790M in NCI-H1975 cell line (Homo sapiens, UniProt P00533, L858R/T790M)", "10 to 20 nM"),
    ("CC(C)c1cnc(C(=O)NC2CN(C)C2)c2cnc(Nc3ccnc(N4CC[C@@H](O)[C@@](C)(F)C4)n3)cc12 [Example 59]", "EGFR L858R T790M in NCI-H1975 cell line (Homo sapiens, UniProt P00533, L858R/T790M)", "30 to 50 nM"),
    ("CC(C)c1cnc(C(=O)NC2COC2)c2cnc(Nc3ccnc(N4CC[C@@H](O)[C@@](C)(F)C4)n3)cc12 [Example 60]", "EGFR L858R T790M in NCI-H1975 cell line (Homo sapiens, UniProt P00533, L858R/T790M)", "30 to 50 nM"),
    ("CC(C)c1cnc(NCCS(C)(=O)=O)c2cnc(Nc3ccnc(N4CC[C@@H](O)[C@@](C)(F)C4)n3)cc12 [Example 2]", "EGFR L858R T790M in NCI-H1975 cell line (Homo sapiens, UniProt P00533, L858R/T790M)", "10 to 20 nM"),
    ("CC(C)c1ccc(OC[C@H]2COC(=O)N2C)c2cnc(Nc3ccnc(N4CC[C@@](C)(O)[C@@H](F)C4)n3)cc12 (single isomer, unassigned) [Example 23]", "EGFR L858R T790M in NCI-H1975 cell line (Homo sapiens, UniProt P00533, L858R/T790M)", "30 to 50 nM"),
    ("CNc1ccc(C(C)C)c2cc(Nc3ccnc(N4CC[C@@H](O)[C@@](C)(F)C4)n3)ncc12 [Example 91]", "EGFR L858R T790M in NCI-H1975 cell line (Homo sapiens, UniProt P00533, L858R/T790M)", "20 to 30 nM"),
    ("CC(=O)N1CC(COc2ccc(C(C)C)c3cc(Nc4ccnc(N5CC[C@@H](O)[C@@](C)(F)C5)n4)ncc23)C1 [Example 8]", "EGFR L858R T790M in NCI-H1975 cell line (Homo sapiens, UniProt P00533, L858R/T790M)", "< 10 nM"),
    ("CC(C)c1ccc(OCCN2CCOCC2)c2cnc(Nc3ccnc(N4CC[C@](C)(O)[C@H](F)C4)n3)cc12 [Example 31]", "EGFR L858R T790M in NCI-H1975 cell line (Homo sapiens, UniProt P00533, L858R/T790M)", "> 50 nM"),
    ("CC(C)c1ccc(OCc2cn(C)nn2)c2cnc(Nc3ccnc(N4CC[C@@H](O)[C@@](C)(F)C4)n3)cc12 [Example 10]", "EGFR L858R T790M in NCI-H1975 cell line (Homo sapiens, UniProt P00533, L858R/T790M)", "30 to 50 nM"),
    ("CO[C@@H]1CCN(c2nccc(Nc3cc4c(C(C)C)ccc(OCC5CN(C(C)=O)C5)c4cn3)n2)C[C@@H]1O (single isomer, unassigned) [Example 56]", "EGFR L858R T790M in NCI-H1975 cell line (Homo sapiens, UniProt P00533, L858R/T790M)", "30 to 50 nM"),
    ("CC(C)c1ccc(OCCn2cncn2)c2cnc(Nc3ccnc(N4CC[C@](C)(O)[C@H](F)C4)n3)cc12 [Example 39]", "EGFR L858R T790M in NCI-H1975 cell line (Homo sapiens, UniProt P00533, L858R/T790M)", "> 50 nM"),
    ("[2H]C([2H])([2H])O[C@@H]1CCN(c2nccc(Nc3cc4c(C(C)C)ccc(OCCn5ccnc5)c4cn3)n2)C[C@@H]1F [Example 49]", "EGFR L858R T790M in NCI-H1975 cell line (Homo sapiens, UniProt P00533, L858R/T790M)", "> 50 nM"),
    ("CO[C@@H]1CCN(c2nccc(Nc3cc4c(C(C)C)cnc(NCCN(C)C)c4cn3)n2)C[C@@H]1F [Example 3]", "EGFR L858R T790M in NCI-H1975 cell line (Homo sapiens, UniProt P00533, L858R/T790M)", "> 50 nM"),
    ("CC(C)c1cnc(C(=O)NCC(F)F)c2cnc(Nc3ccnc(N4CC[C@@H](O)[C@@](C)(F)C4)n3)cc12 [Example 67]", "EGFR L858R T790M in NCI-H1975 cell line (Homo sapiens, UniProt P00533, L858R/T790M)", "> 50 nM"),
    ("CC(C)c1cnc(C(=O)NC2CN(CCF)C2)c2cnc(Nc3ccnc(N4CC[C@@H](O)[C@@](C)(F)C4)n3)cc12 [Example 80]", "EGFR L858R T790M in NCI-H1975 cell line (Homo sapiens, UniProt P00533, L858R/T790M)", "20 to 30 nM"),
    ("CC(C)c1cnc(C(=O)N[C@H]2CN(C)C[C@H]2F)c2cnc(Nc3ccnc(N4CC[C@@H](O)[C@@](C)(F)C4)n3)cc12 (single isomer, unassigned) [Example 87]", "EGFR L858R T790M in NCI-H1975 cell line (Homo sapiens, UniProt P00533, L858R/T790M)", "10 to 20 nM"),
    ("CC(C)c1ccc(OCCn2ccnc2)c2cnc(Nc3ccnc(N4CC[C@@](C)(O)[C@@H](F)C4)n3)cc12 [Example 12]", "EGFR L858R T790M in NCI-H1975 cell line (Homo sapiens, UniProt P00533, L858R/T790M)", "> 50 nM"),
]
